The reported measurements were obtained from patent US12268723B2.

tested on: SARS-CoV-2; test: microbe, parasite or virus in culture; format: cell-based; conditions: Severe acute respiratory syndrome coronavirus 2; Vero cells; unit inferred; read-out: Activity against SARS-CoV-2 EC50
Reported EC50 values follow for various molecules
Number only, in nM; omit the unit.

{"columns": ["Molecule", "EC50 [nM]"],
 "data": [
  ["CC(C)C[C@H](NC(=O)[C@H](Cc1cccc2ccccc12)NC(=O)OCc1ccccc1)C(=O)N[C@@H](C[C@@H]1CCCNC1=O)C(O)S(=O)(=O)O (some centres unmarked)", 300]
]}

Here is the next item to consider.
Output measured EC50 for this item: `Cc1cc(C(=O)N[C@@H](Cc2cccc3ccccc23)C(=O)N[C@@H](CC(C)C)C(=O)N[C@H](C=O)C[C@@H]2CCCNC2=O)no1`
600

----------
Reported CC50 values follow for various molecules
experiment: Cytotoxicity (MTS) in RD cells; assay type: cell-based, human; conditions: human, RD (rhabdomyosarcoma) cells

Solved entries (count: 2):
{"columns": ["Smiles", "CC50"],
 "data": [
  ["CC(C)C[C@H](NC(=O)[C@H](Cc1cccc2ccccc12)NC(=O)c1cnccn1)C(=O)N[C@H](C=O)C[C@@H]1CCCNC1=O", "> 100 µM"],
  ["CC(C)C[C@H](NC(=O)[C@H](Cc1cccc2ccccc12)NC(=O)OCc1ccccc1)C(=O)N[C@H](C=O)C[C@@H]1CCNC1=O", "> 100 µM"]
]}

Output measured CC50 for this item: `Cc1cc(C(=O)N[C@@H](CC(C)C)C(=O)N[C@H](C=O)C[C@@H]2CCCNC2=O)no1`
> 100 µM
